Each record here notes measured AUC(0-t) at 4 h.
- Assay comment: AUC (0 to 4 hrs) in rat
- Assay type: ADME, organism-based
- Set-up: time < 4 hr; concentration or dose not given beside the values
- Measurement parameters: plasma
Property label: AUC(0-t) at 4 h (ng·h/mL)

[
  {
    "Compound": "C[C@H]1OC(=O)[C@@H]2C[C@@H]3CCCC[C@H]3[C@H](/C=C/c3ccc(-c4ccccn4)cn3)[C@H]12",
    "Property label": "AUC(0-t) at 4 h",
    "Value unit": "ng·h/mL",
    "Observed result": 509
  },
  {
    "Compound": "C[C@H]1OC(=O)[C@@H]2C[C@@H]3CCCC[C@H]3[C@H](/C=C/c3ccc(-c4ccsc4)cn3)[C@H]12 (racemic)",
    "Property label": "AUC(0-t) at 4 h",
    "Value unit": "ng·h/mL",
    "Observed result": 434
  },
  {
    "Compound": "C[C@H]1OC(=O)[C@@H]2C[C@@H]3CCCC[C@H]3[C@H](/C=C/c3ccc(-c4ccccc4)cn3)[C@H]12",
    "Property label": "AUC(0-t) at 4 h",
    "Value unit": "ng·h/mL",
    "Observed result": 451
  },
  {
    "Compound": "C[C@H]1OC(=O)[C@@H]2C[C@@H]3CCCC[C@H]3[C@H](/C=C/c3ccc(-c4cccc(C(F)(F)F)c4)cn3)[C@H]12",
    "Property label": "AUC(0-t) at 4 h",
    "Value unit": "ng·h/mL",
    "Observed result": 3010
  }
]
